Sourced from PubChem BioAssay AID2060497

Tested on: 317291-083-R-J1-PDC complex spheroids, viability;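 further: spheroids exposed to compounds for one week before readout; percent viability relative to DMSO vehicle wells taken as 100%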
measurement.protocol: Anticancer human tumor 317291-083-R-J1-PDC patient-derived soft tissue sarcoma cell line growth inhibition [GQUAD]
stated.conditions: second compound 0.1 µM; first compound 0.316 µM; active compounds read low
So I've got a bunch of molecules here, and I need their viability, T/C values.
// units = %; emit number, no label

Incoming: Quote viability, T/C reported for CCCS(=O)(=O)Nc1ccc(F)c(C(=O)c2c[nH]c3ncc(-c4ccc(Cl)cc4)cc23)c1F + Cc1[nH]c2ccc(F)cc2c1-c1nc2c3cccnc3c3ncccc3c2[nH]1 please.
Outgoing: 83.5

Incoming: Quote viability, T/C reported for CC1COCCN1c1cc(C2(O)CC3CCC(C2)O3)c2cnn(-c3ccn[nH]3)c2n1 (stereo not drawn) + CN(C)c1ccc(Nc2c3ccc(NC(=O)CCN4CCCC4)cc3nc3cc(NC(=O)CCN4CCCC4)ccc23)cc1 please.
Outgoing: 18.2

Incoming: Quote viability, T/C reported for CC[C@@]1(O)C(=O)OCc2c1cc1n(c2=O)Cc2cc3c(CN(C)C)c(O)ccc3nc2-1 + CN(C)c1ccc(Nc2c3ccc(NC(=O)CCN4CCCC4)cc3nc3cc(NC(=O)CCN4CCCC4)ccc23)cc1 please.
Outgoing: 15.9
